- Test system: SN12C
- assay notes: NCI tumour cell line growth inhibition, 48 h
Calls of active or inactive are those of the source. No stated cut-off is given here; in the data, active = GI50 up to about 1.1 µM and inactive = higher.
Respond using exactly one of the listed classes: active, inactive

molecule: O=c1[nH]c(=O)n(C2CC(O)C(COP(=O)(O)OC3CC(n4cc(F)c(=O)[nH]c4=O)OC3COP(=O)(O)OC3CC(n4cc(F)c(=O)[nH]c4=O)OC3COP(=O)(O)OC3CC(n4cc(F)c(=O)[nH]c4=O)OC3COP(=O)(O)OC3CC(n4cc(F)c(=O)[nH]c4=O)OC3COP(=O)(O)OC3CC(n4cc(F)c(=O)[nH]c4=O)OC3COP(=O)(O)OC3CC(n4cc(F)c(=O)[nH]c4=O)OC3COP(=O)(O)OC3CC(n4cc(F)c(=O)[nH]c4=O)OC3COP(=O)(O)OC3CC(n4cc(F)c(=O)[nH]c4=O)OC3COP(=O)(O)OC3CC(n4cc(F)c(=O)[nH]c4=O)OC3CO)O2)cc1F (stereo not drawn)
discrete label: active

QUERY: Name the outcome recorded for `O=c1c2cc([N+](=O)[O-])ccc2n2n1Cc1ccccc1CC2` in the assay.
RESULT: inactive

QUERY: Per the records of this test, what outcome belongs to `c1ccc(OC2=NC3=S(S2)SC(Oc2ccccc2)=N3)cc1` ?
RESULT: inactive
